Source listed as patent US20090062294A1.

Biological target: FAAH (Homo sapiens)
Sequence (O00519 whole entry): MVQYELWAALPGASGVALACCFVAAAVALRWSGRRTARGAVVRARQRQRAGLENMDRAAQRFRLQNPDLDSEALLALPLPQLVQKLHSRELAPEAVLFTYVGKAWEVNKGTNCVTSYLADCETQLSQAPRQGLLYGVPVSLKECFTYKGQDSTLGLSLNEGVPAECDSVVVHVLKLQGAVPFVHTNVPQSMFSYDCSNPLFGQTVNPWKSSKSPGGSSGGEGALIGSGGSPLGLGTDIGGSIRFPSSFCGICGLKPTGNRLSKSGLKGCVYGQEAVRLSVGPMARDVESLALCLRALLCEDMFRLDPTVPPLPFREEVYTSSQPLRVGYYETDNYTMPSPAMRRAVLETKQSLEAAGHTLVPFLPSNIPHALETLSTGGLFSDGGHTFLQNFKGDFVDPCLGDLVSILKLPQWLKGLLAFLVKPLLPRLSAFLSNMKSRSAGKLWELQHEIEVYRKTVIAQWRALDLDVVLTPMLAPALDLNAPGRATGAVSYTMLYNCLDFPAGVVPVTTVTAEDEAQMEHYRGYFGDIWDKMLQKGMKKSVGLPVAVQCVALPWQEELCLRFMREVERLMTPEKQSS
Assay: Assay Method 1: FAAH assay, 3H-anandamide hydrolysis in homogenate of T84 cells or SK-N-MC cells transfected with human FAAH
Settings: average of results, > = solubility limit or highest concentration tested
Structures can show the parent of a compound that is named as a salt.
property: IC50 (nM)

Examples with answers:
O=C(Nc1cnccn1)N1CCN(Cc2ccc(OCc3ccccc3)cc2)CC1 [Example 219]: 230
O=C(Nc1nn[nH]n1)N1CCN(Cc2cccc(Oc3ccc(F)c(F)c3)c2)CC1 [Example 169]: 610
O=C(Nc1noc2ccccc12)N1CCN(Cc2cccc(Oc3cccc(OC(F)(F)F)c3)c2)CC1 [Example 29, trifluoroacetic acid salt]: 16
O=C(Nc1cnccn1)N1CCN(Cc2cccc(Oc3ccc4ncccc4c3)c2)CC1 [Example 232]: 40
N#Cc1ccc(Oc2cccc(CN3CCN(C(=O)Nc4ccon4)CC3)c2)cc1C(F)(F)F [Example 163]: 1000

a: Cc1cnc(NC(=O)N2CCN(Cc3cccc(C#Cc4ccccc4Cl)c3)CC2)cn1 [Example 80]
b: O=C(Nc1cccs1)N1CCN(Cc2ccc3c(c2)OC(F)(F)O3)CC1 [Example 7]
c: O=C(Nc1noc2ccccc12)N1CCN(Cc2cc3ccccc3s2)CC1 [Example 113]
Prompt: Order these by IC50, descending, and give the full ranking. Your task in answering is to list the labels in the requested order.
Completion: a, b, c
(a: 5000 nM, b: 2000 nM, c: 20 nM)

A: O=C(Nc1noc2ccccc12)N1CCN(Cc2cccc(Oc3ccc(F)c(F)c3)c2)CC1 [Example 33]
B: O=C(Nc1cnccn1)N1CCN(Cc2cccc(Oc3ccc(S(=O)(=O)C(F)(F)F)cc3)c2)CC1 [Example 226]
Prompt: Between A and B , which one shows the larger IC50 value? Give the label of your selection.
Completion: A
(A: 52 nM, B: 6 nM)

====

Target: rat FAAH (Rattus norvegicus)
Sequence (P97612 whole entry): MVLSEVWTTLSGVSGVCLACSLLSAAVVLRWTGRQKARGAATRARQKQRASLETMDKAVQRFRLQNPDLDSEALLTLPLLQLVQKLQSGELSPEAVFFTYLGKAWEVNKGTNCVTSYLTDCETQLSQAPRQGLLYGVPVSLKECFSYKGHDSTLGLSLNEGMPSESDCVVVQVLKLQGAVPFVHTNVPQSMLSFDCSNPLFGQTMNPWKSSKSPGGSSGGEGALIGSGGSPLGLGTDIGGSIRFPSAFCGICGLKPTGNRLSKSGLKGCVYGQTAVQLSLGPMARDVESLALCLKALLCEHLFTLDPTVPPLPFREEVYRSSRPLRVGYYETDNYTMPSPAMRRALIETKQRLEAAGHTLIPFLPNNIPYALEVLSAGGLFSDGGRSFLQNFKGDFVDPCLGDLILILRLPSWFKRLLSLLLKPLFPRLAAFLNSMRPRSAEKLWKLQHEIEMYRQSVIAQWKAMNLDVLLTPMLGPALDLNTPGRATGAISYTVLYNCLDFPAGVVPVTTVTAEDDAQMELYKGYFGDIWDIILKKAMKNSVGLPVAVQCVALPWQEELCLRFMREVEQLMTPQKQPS
Assay: Assay Method 2: FAAH assay, 3H-anandamide hydrolysis in homogenate of SK-N-MC cells transfected with rat FAAH
Details: average of results, > = solubility limit or highest concentration tested
Structures can show the parent of a compound that is named as a salt.
property: IC50 (nM)

Examples with answers:
O=C(Nc1noc2ccccc12)N1CCN(Cc2ccc3ccccc3c2)CC1 [Example 123]: 40
COc1ccc(NC(=O)N2CCN(Cc3cccc(Oc4ccc(Cl)cc4)c3)CC2)nn1 [Example 104]: 690
O=C(Nc1cc[nH]n1)N1CCN(Cc2ccc(F)c(Oc3ccccc3)c2)CC1 [Example 56, trifluoroacetic acid salt]: 550
O=C(Nc1noc2ccccc12)N1CCN(Cc2cccc(C#Cc3ccc(Cl)c(Cl)c3)c2)CC1 [Example 75]: 110
N#Cc1ccccc1COc1cccc(CN2CCN(C(=O)Nc3noc4ccccc34)CC2)c1 [Example 98]: 300
O=C(Nc1ccc2ncccc2n1)N1CCC(Cc2ccc3ccccc3c2)CC1 [Example 17, trifluoroacetic acid salt]: 517
O=C(Nc1cnccn1)N1CCN(Cc2ccc(Br)cc2)CC1 [Example 212]: 8000
O=C(Nc1noc2ccccc12)N1CCN(Cc2cccc(Oc3ccc4ncccc4c3)c2)CC1 [Example 114]: 20

a: O=C(Nc1ccon1)N1CCN(Cc2ccc(Br)c(F)c2)CC1 [Example 151]
b: O=C(Nc1noc2ccccc12)N1CCN(Cc2cccc(Oc3ccc(F)c(Cl)c3)c2)CC1 [Example 207]
c: O=C(Nc1cccc2nsnc12)N1CCN(Cc2cccc(Oc3ccc(Cl)cc3)c2)CC1 [Example 37, trifluoroacetic acid salt]
d: O=C(Nc1ccon1)N1CCC(Cc2ccc(F)cc2)CC1 [Example 24]
e: N#Cc1cccc(Oc2cccc(CN3CCN(C(=O)Nc4noc5ccccc45)CC3)c2)c1 [Example 129]
Prompt: Arrange the 5 entries by IC50 so the values rise. Your task in answering is to list the labels in the requested order.
Completion: c, b, e, d, a
